Origin of values: paper PMC11172384

Target: dhPPase (Desulfitobacterium hafniense CBS-PPase) (Desulfitobacterium hafniense, UniProt B8FP42)
Construct: full-length, tag-less, recombinant in E. coli BL21 (pET-42b); homotetramer
Sequence (B8FP42 1-544): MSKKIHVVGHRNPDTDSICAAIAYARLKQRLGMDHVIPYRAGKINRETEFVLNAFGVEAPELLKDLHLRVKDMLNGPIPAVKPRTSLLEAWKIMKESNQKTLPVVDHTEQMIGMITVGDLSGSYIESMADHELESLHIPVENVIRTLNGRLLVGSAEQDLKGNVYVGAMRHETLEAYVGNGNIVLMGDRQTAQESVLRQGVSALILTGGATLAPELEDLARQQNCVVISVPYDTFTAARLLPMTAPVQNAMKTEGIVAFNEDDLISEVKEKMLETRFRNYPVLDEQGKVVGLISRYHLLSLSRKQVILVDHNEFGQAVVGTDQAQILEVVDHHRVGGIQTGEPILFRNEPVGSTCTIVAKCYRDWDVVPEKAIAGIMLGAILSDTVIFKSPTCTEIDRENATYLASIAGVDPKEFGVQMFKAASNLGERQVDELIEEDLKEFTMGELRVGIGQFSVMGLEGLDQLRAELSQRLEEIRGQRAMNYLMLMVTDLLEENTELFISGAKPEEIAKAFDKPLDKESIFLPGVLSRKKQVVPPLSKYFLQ
Test: isothermal titration calorimetry, single-binding-site model
Conditions: read-out: KN
MEASURED_PARAMETER: Kd (µM)
Write the number in µM without appending the unit.

Example entries begin here.
Nc1ncnc2c1ncn2[C@@H]1O[C@H](COP(=O)(O)OP(=O)(O)OP(=O)(O)O)[C@@H](O)[C@H]1O; 2.1
Nc1ncnc2c1ncn2[C@@H]1O[C@H](COP(=O)(O)OP(=O)(O)O)[C@@H](O)[C@H]1O; 1

// next entry
*Q* # query: Kd of entry Nc1ncnc2c1ncn2[C@@H]1O[C@H](COP(=O)(O)O)[C@@H](O)[C@H]1O
*A* 0.8
